What pIC50 was measured for each of the following?
Molecular target: UniProtKB Q93EK7
Sequence (Q93EK7 whole entry): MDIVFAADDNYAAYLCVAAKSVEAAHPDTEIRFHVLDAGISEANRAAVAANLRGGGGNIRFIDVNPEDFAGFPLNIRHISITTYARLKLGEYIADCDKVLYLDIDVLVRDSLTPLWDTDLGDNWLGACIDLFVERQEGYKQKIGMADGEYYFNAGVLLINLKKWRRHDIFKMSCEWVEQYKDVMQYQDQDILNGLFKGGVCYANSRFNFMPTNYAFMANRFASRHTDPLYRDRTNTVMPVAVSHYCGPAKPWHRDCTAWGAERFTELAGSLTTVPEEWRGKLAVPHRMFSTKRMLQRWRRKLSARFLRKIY
Assay: Inhibition of recombinant Neisseria meningitidis glycosyltransferase LgtC using UDP-Gal/lactose as substrate preincubated for 20 mins with UDP-Gal followed by lactose addition measured after 20 mins in presence of MnCl2 by malachite green dye based colorimetric assay
Please report pIC50 as the negative decimal logarithm of the molar concentration, giving only the number.

INPUT: Look up pIC50 for this molecule: O=C1/C(=C\c2ccc(OCc3ccccc3)cc2)C(C(F)(F)F)=NN1c1ccccc1
OUTPUT: 5.48

INPUT: And then O=C1/C(=C\c2ccccc2)C(C(F)(F)F)=NN1c1ccccc1 , what is it?
OUTPUT: 4.20

INPUT: And then O=C1/C(=C\c2cccc(OCc3ccccc3)c2)C(C(F)(F)F)=NN1c1ccccc1 , what is it?
OUTPUT: 4.42

INPUT: And then COc1ccc(/C=C2\C(=O)N(c3ccccc3)N=C2C(F)(F)F)cc1 , what is it?
OUTPUT: 5.05

INPUT: And then O=C1/C(=C\c2ccc(O)cc2)C(C(F)(F)F)=NN1c1ccccc1 , what is it?
OUTPUT: 5.24

INPUT: And then O=C1/C(=C\c2ccc(Cl)cc2)C(C(F)(F)F)=NN1c1ccccc1 , what is it?
OUTPUT: 4.10

INPUT: And then COc1ccc(/C=C2\C(=O)N(c3ccccc3)N=C2C(F)(F)F)cc1Br , what is it?
OUTPUT: 5.19

INPUT: And then O=C1/C(=C\c2cccc(Cl)c2)C(C(F)(F)F)=NN1c1ccccc1 , what is it?
OUTPUT: 4.19

---

What IC50 was measured for each of the following?
molecular target: LgtC (Neisseria meningitidis); assay: Inhibition of recombinant Neisseria meningitidis glycosyltransferase LgtC using UDP-Gal/lactose as substrate preincubated for 30 mins with UDP-Gal followed by lactose addition measured after 20 mins in presence of MnCl2 and calf intestinal phosphatase by malachite green dye based enzyme-coupled colorimetric assay relative to control
Use µM as the unit, but write only the number.

INPUT: Look up IC50 for this compound: O=C1/C(=C\c2ccc(Cl)cc2)C(C(F)(F)F)=NN1c1ccccc1
OUTPUT: 25

INPUT: And then COc1ccc(/C=C2\C(=O)N(c3ccc(C(=O)O)cc3)N=C2C(F)(F)F)cc1Br , what is it?
OUTPUT: 2.9

INPUT: And then COc1ccc(/C=C2\C(=O)N(c3ccccc3)N=C2C(F)(F)F)cc1Br , what is it?
OUTPUT: 3.1

INPUT: And then COc1ccc(/C=C2\C(=O)N(c3cccc(C(=O)NCCO)c3)N=C2C(F)(F)F)cc1Br , what is it?
OUTPUT: 4.3

INPUT: And then O=C1/C(=C\c2ccccc2)C(C(F)(F)F)=NN1c1ccccc1 , what is it?
OUTPUT: 28

INPUT: And then O=C1/C(=C\c2cccc(OCc3ccccc3)c2)C(C(F)(F)F)=NN1c1ccccc1 , what is it?
OUTPUT: 18

INPUT: And then COc1ccc(/C=C2\C(=O)N(c3cccc(C(=O)O)c3)N=C2C(F)(F)F)cc1Br , what is it?
OUTPUT: 3

INPUT: And then COc1ccc(/C=C2\C(=O)N(Cc3ccccc3)N=C2C(F)(F)F)cc1Br , what is it?
OUTPUT: 12

---

target: LgtC (Neisseria meningitidis); assay: Inhibition of recombinant Neisseria meningitidis glycosyltransferase LgtC using UDP-Gal/lactose as substrate at 25 uM preincubated for 30 mins with UDP-Gal followed by lactose addition measured after 20 mins in presence of MnCl2 and calf intestinal phosphatase by malachite green dye based enzyme-coupled colorimetric assay relative to control
observable: inhibition (%)
Use % as the unit, but write only the number.

INPUT: Look up inhibition for this molecule: COc1ccc(/C=C2\C(=O)N(c3ccccc3)N=C2C)cc1Br
OUTPUT: 33

INPUT: And then COc1ccc(/C=C2\C(=O)N(c3ccccc3)N=C2C(=O)O)cc1Br , what is it?
OUTPUT: 35

INPUT: And then COc1ccc(/C=C2\C(=O)N(c3ccccc3)N=C2C(F)(F)F)cc1Br , what is it?
OUTPUT: 80

INPUT: And then CCOC(=O)C1=NN(c2ccccc2)C(=O)/C1=C\c1ccc(OC)c(Br)c1 , what is it?
OUTPUT: 61

INPUT: And then COc1ccc(/C=C2\C(=O)N(c3ccccc3)N=C2C(N)=O)cc1Br , what is it?
OUTPUT: 31

INPUT: And then CCOC(=O)CC1=NN(c2ccccc2)C(=O)/C1=C\c1ccc(OC)c(Br)c1 , what is it?
OUTPUT: 32

---

target: LgtC (Neisseria meningitidis) (UniProt Q93EK7); test: Inhibition of recombinant Neisseria meningitidis glycosyltransferase LgtC using UDP-Gal/lactose as substrate preincubated for 20 mins with UDP-Gal followed by lactose addition measured after 20 mins in presence of MnCl2
observable: Kinact (s⁻¹)
Use s⁻¹ as the unit, but write only the number.

INPUT: Look up Kinact for this molecule: O=C1/C(=C\c2cccc(OCc3ccccc3)c2)C(C(F)(F)F)=NN1c1ccccc1
OUTPUT: 0.0018

INPUT: And then COc1ccc(/C=C2\C(=O)N(c3ccccc3)N=C2C(F)(F)F)cc1Br , what is it?
OUTPUT: 0.0012

INPUT: And then O=C1/C(=C\c2ccccc2)C(C(F)(F)F)=NN1c1ccccc1 , what is it?
OUTPUT: 0.002

INPUT: And then O=C1/C(=C\c2ccc(OCc3ccccc3)cc2)C(C(F)(F)F)=NN1c1ccccc1 , what is it?
OUTPUT: 0.0011

INPUT: And then O=C1/C(=C\c2cccc(Cl)c2)C(C(F)(F)F)=NN1c1ccccc1 , what is it?
OUTPUT: 0.0016

INPUT: And then COc1ccc(/C=C2\C(=O)N(c3ccccc3)N=C2C(F)(F)F)cc1 , what is it?
OUTPUT: 0.0015

INPUT: And then O=C1/C(=C\c2ccc(Cl)cc2)C(C(F)(F)F)=NN1c1ccccc1 , what is it?
OUTPUT: 0.0009

INPUT: And then O=C1/C(=C\c2ccc(O)cc2)C(C(F)(F)F)=NN1c1ccccc1 , what is it?
OUTPUT: 0.0025
